Tested on: UACC-257
Procedure Summary: NCI tumour cell line growth inhibition, 48 h
The source made the active and inactive calls. Cut-off read from the data, not from the text of the source: active = GI50 up to about 1.1 µM and inactive = higher. Where a SMILES comes first, the peptide text is derived from it. The star is where a group is joined. Cbz = O=C(OCc1ccccc1)*

{"Compound": "COCOC1CCCC[C@@]1(OCCOCCO[C@@]1(c2ccccc2)CCCC[C@H]1OCOC)c1ccccc1 (some centres not stated)", "GI50": "> 100 µM (inactive)"}
{"Compound": "COc1ccc(NC(=O)C2=C(SC)C(=O)N=C2N)cc1", "GI50": "> 100 µM (inactive)"}
{"Compound": "COc1ccc(C(=O)C2CC3(CCC2(O)c2ccc(OC)cc2)CC(=O)Nc2ccccc2C3=O)cc1 (configuration not stated)", "GI50": "> 100 µM (inactive)"}
{"Compound": "CCOC(=O)C1=C(C)NC(=O)N([N+](=O)[O-])C1c1ccccc1C(F)(F)F (configuration not stated)", "GI50": "> 100 µM (inactive)"}
{"Compound": "Sc1nnc(-c2ccnc(-c3nnc(S)[nH]3)c2)[nH]1", "GI50": "> 100 µM (inactive)"}
{"Compound": "CC1(C)C[C@H]2[C@H](O)C(CO)=C3C(=O)[C@@H](O)[C@]3(C)[C@H]2C1", "GI50": "> 100 µM (inactive)"}
{"Compound": "N#Cc1c(-c2ccc([N+](=O)[O-])cc2)c(C#N)c(=O)n(NS(=O)(=O)c2ccccc2)c1-c1ccccc1", "GI50": "> 100 µM (inactive)"}
{"Compound": "COc1ccc(-c2[nH]c(-c3ccc(OC)cc3)c(-c3ccccn3)c2-c2ccccn2)cc1", "GI50": "40.2 µM (inactive)"}
{"Compound": "O=[N+]([O-])c1cccnc1S(=O)(=O)c1ccccc1", "GI50": "17.4 µM (inactive)"}
{"Compound": "CCCCCCCCCCOCCOCCOCCOCCCCC(O)CCCCCCCC1=C[C@H](C)OC1=O (some centres not stated)", "GI50": "9.14 µM (inactive)"}
{"Compound": "C[C@H]1C2Cc3cc(N)ccc3[C@@]1(C)CCN2CCc1ccccc1", "GI50": "30.7 µM (inactive)"}
{"Compound": "CCOC(=O)CCC(NC(=O)C(CC(=O)OC)NC(=O)OCc1ccccc1)C(=O)NC(CC(=O)OC)C(=O)NC(CCC(=O)OCC)C(=O)NC(CC(=O)OC)C(=O)NC(CCC(=O)OCC)C(=O)NC(CC(=O)OCC)C(=O)OCC (configuration not stated) (Cbz-D(OMe)E(OEt)D(OMe)E(OEt)D(OMe)E(OEt)D(OEt)-OEt; configuration not given here)", "GI50": "> 100 µM (inactive)"}
{"Compound": "CCOC(=O)C1=CN(Cc2ccccc2)C2ON=C(c3ccc(Cl)cc3)C2C1 (configuration not stated)", "GI50": "33.3 µM (inactive)"}
{"Compound": "NC(=O)NC1C(C(=O)O)N(Cc2ccccc2)C(=O)N1Cc1ccccc1 (configuration not stated)", "GI50": "> 100 µM (inactive)"}
{"Compound": "COC(=O)C12C3C4C5C3(C#N)C1C5(C(=O)OC)C42C(=O)N(C(C)C)C(C)C (configuration not stated)", "GI50": "> 100 µM (inactive)"}
{"Compound": "COc1cc(Nc2cnc3ccc(C(F)(F)F)cc3n2)cc(OC)c1OC", "GI50": "9.84 µM (inactive)"}
{"Compound": "CC1(C)CC[C@]2(C(=O)O)CC[C@]3(C)C(=CC[C@@H]4[C@@]5(C)CC[C@H](OC6OC(CO)C(O)C(O)C6O)C(C)(C)[C@@H]5CC[C@]43C)[C@@H]2C1 (some centres not stated)", "GI50": "1.69 µM (inactive)"}
{"Compound": "COS(=O)c1cc(Cl)cc(Cl)c1O (configuration not stated)", "GI50": "> 100 µM (inactive)"}
{"Compound": "O=C(NCCO)c1c(O)c2ccccc2[nH]c1=O", "GI50": "> 100 µM (inactive)"}
{"Compound": "C=C1CC[C@@H]2C13[C@@H]1[C@H](CC(=O)[C@@]23C)C1(C)C (some centres not stated)", "GI50": "> 100 µM (inactive)"}
{"Compound": "CC[C@@]1(O)C(=O)OCc2c1cc1n(c2=O)Cc2c-1nc1ccccc1c2/C=N/NC(=O)C[N+](C)(C)C", "GI50": "12.7 µM (inactive)"}
{"Compound": "CCOC(=O)c1nc2cc(C(F)(F)F)ccc2nc1Nc1ccc(C(=O)NC(C(=O)OCC)C(=O)OCC)cc1", "GI50": "18.7 µM (inactive)"}

----------
Tested on: M14
Procedure Summary: NCI tumour cell line growth inhibition, 48 h
The source made the active and inactive calls. No stated cut-off is given here; in the data, active = GI50 up to about 1.1 µM and inactive = higher.
// reported GI50 for each item listed

{"Molecule": "CC(C)/C=C1\\CCC(CN(C)C)C1=O (stereo unspecified)", "GI50": "1.77 µM (inactive)"}
{"Molecule": "COC(=O)C(C(=O)C(=O)Nc1ccccc1OC)c1csc(-n2nc(-c3ccccc3)cc2-c2ccccc2)n1 (stereo unspecified)", "GI50": "> 100 µM (inactive)"}
{"Molecule": "CCOC(=O)/C(=C\\n1c(=O)sc2ccccc21)C(=O)c1ccccc1", "GI50": "> 100 µM (inactive)"}
{"Molecule": "O=[N+]([O-])c1cccnc1S(=O)(=O)c1ccccc1", "GI50": "9.4 µM (inactive)"}
{"Molecule": "CC1=C(C(=O)OCCO[N+](=O)[O-])C(c2cccc([N+](=O)[O-])c2)C(C(=O)OC(C)C)=C(C)N1 (stereo unspecified)", "GI50": "16 µM (inactive)"}
{"Molecule": "Cc1ccc(-c2n[nH]c(=O)n2/N=C\\c2ccc([N+](=O)[O-])cc2)cc1", "GI50": "58.2 µM (inactive)"}
{"Molecule": "CCCNC(=O)Cn1c(-c2ccccc2)cc2ccccc21", "GI50": "> 100 µM (inactive)"}
{"Molecule": "Cc1nn(C(=O)c2ccncc2)c2c1C(c1ccccc1)SC(=N)N2 (stereo unspecified)", "GI50": "> 10 µM (inactive)"}
{"Molecule": "CCOC(=O)C1=NN(c2ccc(C)cc2)C2=CC(C)=NN(C)C(=S)N21", "GI50": "> 100 µM (inactive)"}
{"Molecule": "C=C1CC2[C@H](C)C(=O)CCC2(C)C2=C1C1CCC(C(C)CCC(=C)C(C)C(=O)O)C1(C)CC2=O (stereo partly specified)", "GI50": "> 100 µM (inactive)"}
{"Molecule": "COc1ccc(-c2cc(C3CC3)nc(SCC(=O)O)c2C#N)cc1", "GI50": "> 100 µM (inactive)"}

----------
Tested on: ACHN
Procedure Summary: NCI tumour cell line growth inhibition, 48 h
The source made the active and inactive calls. Cut-off read from the data, not from the text of the source: active = GI50 up to about 1.1 µM and inactive = higher.

{"Compound": "COc1cc(Nc2cnc3ccc(C(F)(F)F)cc3n2)cc(OC)c1OC", "GI50": "9.95 µM (inactive)"}
{"Compound": "Oc1nc2ccccc2c2oc3ccccc3c12", "GI50": "> 100 µM (inactive)"}
{"Compound": "COc1ccc([C@H]2c3cc4c(cc3OC(O)(CO)[C@H]2C(=O)O)OCO4)c(OC)c1.COc1ccc([C@H]2c3cc4c(cc3OC3(O)COC(=O)[C@@H]23)OCO4)c(OC)c1 (some centres not stated)", "GI50": "> 100 µM (inactive)"}
{"Compound": "O=C(O)c1cc(=O)c2c(OCC(O)COc3cccc4oc(C(=O)O)cc(=O)c34)cccc2o1", "GI50": "> 100 µM (inactive)"}
{"Compound": "C=CCc1c(C)nc(C)nc1N/N=C/C=C/c1ccccc1", "GI50": "> 100 µM (inactive)"}
{"Compound": "COCCn1cnc2c(Cl)nc(Nc3ccccc3)nc21", "GI50": "17.9 µM (inactive)"}
{"Compound": "CC(C)(C)c1ccc2c(c1)C(O)(c1ccccc1)c1cc(C(C)(C)C)ccc1C2(O)C(F)(F)F (configuration not stated)", "GI50": "2.14 µM (inactive)"}

----------
Test system: COLO 205
Procedure Summary: NCI tumour cell line growth inhibition, 48 h
Active and inactive are the calls of the source. No stated cut-off is given here; in the data, active = GI50 up to about 1.1 µM and inactive = higher. Where a SMILES comes first, the peptide text is derived from it. The star is where a group is joined. Boc = CC(C)(C)OC(=O)*; tBu = CC(C)(C)*
Labels: active, inactive

{"Compound": "CCOc1ccc(Nc2nc(N)nc(N)c2N=O)cc1", "Answer Label": "inactive"}
{"Compound": "O=C1C=CC(=O)C(N(CCO)CCO)=C1.O=C1C=CC2(O)OCCN(CCO)C2=C1", "Answer Label": "inactive"}
{"Compound": "COc1ccc(OC)c(-c2cc(C(=O)O)c3cc4ccccc4cc3n2)c1", "Answer Label": "inactive"}
{"Compound": "Brc1ccc2c(-c3csc(-c4c[nH]c5ccccc45)n3)c[nH]c2c1", "Answer Label": "inactive"}
{"Compound": "CC(C)/C=C1\\CCC(CN(C)C)C1=O (stereo not drawn)", "Answer Label": "active"}
{"Compound": "CC(OC(C)(C)C)C(NC(=O)C(N)CCCCNC(=O)OC(C)(C)C)C(=O)NC(Cc1ccccc1)C(=O)O (stereo not drawn) (H-Lys(Boc)-Thr(tBu)-Phe-OH; configuration not given here)", "Answer Label": "inactive"}
{"Compound": "NCCCCN(CCCN)/[N+]([O-])=N\\O", "Answer Label": "inactive"}
{"Compound": "Fc1cccc2cc3ccc4cccc5ccc(c12)c3c45", "Answer Label": "inactive"}
{"Compound": "Cc1n[nH]c(=O)n1Nc1ccccc1", "Answer Label": "inactive"}
{"Compound": "CC(CN1CC(=O)NC(=O)C1)N1CC(=O)NC(=O)C1 (stereo not drawn)", "Answer Label": "inactive"}
{"Compound": "CC1=C(C(=O)Nc2cc(=O)n(C)c(=O)n2C)C(c2ccco2)C(C(=O)Nc2cc(=O)n(C)c(=O)n2C)=C(C)N1", "Answer Label": "inactive"}
{"Compound": "CC(=O)OC1CCn2nnc(CO[Si](C)(C)C(C)(C)C)c21 (stereo not drawn)", "Answer Label": "inactive"}
{"Compound": "CCOC(=O)C(O)(NC(=O)c1ccccc1F)C(F)(F)F (stereo not drawn)", "Answer Label": "inactive"}
{"Compound": "C[n+]1c2ccccc2cc2c(CNC(CCCNC(=N)N)C(=O)O)cccc21 (stereo not drawn)", "Answer Label": "active"}
{"Compound": "O=c1c(-c2ccccc2)c(O)nc2[nH]c3ccccc3n12", "Answer Label": "inactive"}
{"Compound": "CSc1nc(NC2OC(COC(C)=O)C(OC(C)=O)C(OC(C)=O)C2OC(C)=O)c(-c2csc(N)n2)c(=O)n1C (stereo not drawn)", "Answer Label": "inactive"}
{"Compound": "OC(CCl)CN1CC[N+]2(CC1)CC[N+]1(CCN(CC(O)CCl)CC1)CC2 (stereo not drawn) [PROSPIDIUM CHLORIDE]", "Answer Label": "inactive"}
{"Compound": "CCOC(=O)C1=NN(c2ccc(C)cc2)C2=CC(C)=NN(C)C(=S)N21", "Answer Label": "inactive"}
{"Compound": "N/C(=N\\O)N/N=C\\c1ccc(O)c(O)c1O", "Answer Label": "inactive"}
{"Compound": "COC(=O)C(=O)C(C#N)c1cccc2ccccc12 (stereo not drawn)", "Answer Label": "inactive"}
{"Compound": "Cc1ccc(-c2cc[n+]3c(n2)oc2ccccc23)cc1", "Answer Label": "inactive"}
{"Compound": "CCOC(=O)C=C1CCN(C(=O)c2ccccc2)CC1", "Answer Label": "inactive"}
{"Compound": "COc1ccc2c(c1OC)C(=O)N/C2=C\\c1c(CCN(C)C)cc2c(c1OC)OCO2", "Answer Label": "inactive"}
{"Compound": "NC(=O)NC1C(C(=O)O)N(Cc2ccccc2)C(=O)N1Cc1ccccc1 (stereo not drawn)", "Answer Label": "inactive"}
{"Compound": "CNN1C(=O)c2c(C)c(C)c(C#N)c(N)c2C1=O", "Answer Label": "inactive"}
{"Compound": "CC(=O)NC(Cc1ccccc1)C(=S)N1CCCC1 (stereo not drawn)", "Answer Label": "inactive"}
{"Compound": "CC(=O)OCC1OC(Nc2ccc3nc(C)n(-c4cccc(C)c4)c(=O)c3c2)C(OC(C)=O)C(OC(C)=O)C1OC(C)=O (stereo not drawn)", "Answer Label": "inactive"}
{"Compound": "CC(=O)OCC1OC(n2c(=S)n(-c3ccc([N+](=O)[O-])cc3)c(=O)c3ccccc32)C(OC(C)=O)C(OC(C)=O)C1OC(C)=O (stereo not drawn)", "Answer Label": "inactive"}
